- protocol.notes: Growth inhibition of human Nc37 cells assessed as viable cells at 10^-4 M after 72 hrs relative to control
- Format: functional
- stated.conditions: NC-37, 72 h, read-out: Activity
attribute.measured: viability at 100 µM
Answer shape: numeric part, then the unit.

Reported viability at 100 µM, compound "CC(=O)OC[C@H]1O[C@@H](n2cnc3c(NC(=O)Nc4ccc(Cl)cc4)ncnc32)[C@H](OC(C)=O)[C@@H]1OC(C)=O" : ____
30%

Reported viability at 100 µM, compound CC(C)C(NC(=O)n1cnc2c(N)ncnc21)C(=O)OCc1ccccc1 (stereo unspecified) : ____
60%

Reported viability at 100 µM, compound "CCCC(=O)n1cnc2c(N)ncnc21" : ____
90%

Reported viability at 100 µM, compound "Cc1ccccc1NC(=O)Nc1ncnc2c1ncn2C(=O)Nc1ccccc1C" : ____
60%

Reported viability at 100 µM, compound "CCCCNC(=S)Nc1ncnc2[nH]cnc12" : ____
30%

Reported viability at 100 µM, compound "CCOC(=O)CNC(=O)n1cnc2c(N)ncnc21" : ____
60%

Reported viability at 100 µM, compound "CNc1ncnc2c1ncn2C(=O)NC(C)(C)C" : ____
60%

Reported viability at 100 µM, compound "O=C(Nc1ccc(Cl)cc1)Nc1ncnc2c1ncn2[C@@H]1O[C@H](CO)[C@@H](O)[C@H]1O" : ____
30%

Reported viability at 100 µM, compound "CNC(=O)Nc1ncnc2c1ncn2C(=O)Nc1ccccc1" : ____
90%

Reported viability at 100 µM, compound "CC(C)(C)NC(=O)n1cnc2c(N)ncnc21" : ____
60%

Reported viability at 100 µM, compound "CC(=O)n1cnc2c(N)ncnc21" : ____
90%

Reported viability at 100 µM, compound "COc1ccc(NC(=O)Nc2ncnc3c2ncn3C(=O)NC(C)(C)C)cc1" : ____
90%

Reported viability at 100 µM, compound "CCCCNC(=O)n1cnc2c(N)ncnc21" : ____
30%

Reported viability at 100 µM, compound "CCOC(=O)n1cnc2c(NC)ncnc21" : ____
30%

Reported viability at 100 µM, compound "CC(C)(C)CNC(=O)Nc1ncnc2c1ncn2[C@@H]1O[C@H](CO)[C@@H](O)[C@H]1O" : ____
90%

Reported viability at 100 µM, compound "CC(C)(C)NC(=O)n1cnc2c(NC(=O)Nc3ccccc3F)ncnc21" : ____
60%

====

- protocol.notes: Growth inhibition of human Nc37 cells assessed as viable cells at 10^-4 M after 72 hrs relative to control
- Assay type: functional
- stated.conditions: NC-37, 72 h, read-out: Activity
For each record, write down the corresponding viability at 100 µM.
Number only, in %; omit the unit.

Reported viability at 100 µM, compound "O=C(Nc1ccccc1)Nc1ncnc2c1ncn2C(=O)Nc1ccccc1" : ____
60

Reported viability at 100 µM, compound "O=C(Nc1ccc(F)cc1)Nc1ncnc2[nH]cnc12" : ____
90

Reported viability at 100 µM, compound "O=C(NCCc1ccccc1Cl)Nc1ncnc2c1ncn2[C@@H]1O[C@H](CO)[C@@H](O)[C@H]1O" : ____
60

Reported viability at 100 µM, compound "Nc1ncnc2c1ncn2C(=O)NCC(=O)OCc1ccccc1" : ____
60

Reported viability at 100 µM, compound "O=C(O)CNC(=O)CNC(=O)Nc1ncnc2[nH]cnc12" : ____
90

Reported viability at 100 µM, compound "C=CCNC(=O)n1cnc2c(N)ncnc21" : ____
30

Reported viability at 100 µM, compound "O=C(Nc1ccc(Br)cc1)Nc1ncnc2c1ncn2C(=O)Nc1ccc(Br)cc1" : ____
60

Reported viability at 100 µM, compound "Nc1ncnc2c1ncn2C(=O)Nc1ccccc1F" : ____
90

Reported viability at 100 µM, compound "CN(C(=O)Nc1ccccc1)c1ncnc2c1ncn2C(=O)Nc1ccccc1" : ____
90

Reported viability at 100 µM, compound "O=C(NCCc1ccccc1Cl)Nc1ncnc2[nH]cnc12" : ____
30

Reported viability at 100 µM, compound "CCCCCCCC(=O)n1cnc2c(N)ncnc21" : ____
60

Reported viability at 100 µM, compound "Nc1ncnc2c1ncn2C(=O)NC1CCCCC1" : ____
30
